Data origin: patent US20180291081A1

# Target Of Assay: T1, PD-1 molecule (refolded, purified and biotinylated PD-1 of Example 2) (UniProt Q15116 33-150, biotinylated with BirA enzyme (site not stated))
# T1 construct: also called Programmed Death-1
# T1 sequence (Q15116 33-150 limits assumed): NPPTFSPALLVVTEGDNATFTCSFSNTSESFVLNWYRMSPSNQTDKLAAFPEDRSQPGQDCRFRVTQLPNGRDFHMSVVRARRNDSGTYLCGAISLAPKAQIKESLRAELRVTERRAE
# Assay: SPR (BIAcore T200), single-cycle kinetics; biotinylated PD-1 captured via streptavidin, PDL-1 variant in solution
# Procedure: The anti-streptavidin antibody (GenScript) was added to the coupling buffer (10 mM sodium acetate buffer, pH 4.77). The antibody was then flowed through a CMS chip previously activated with EDC and NHS to immobilize the antibody on the chip surface. Finally, the unreacted activation surface was blocked with a solution of ethanolamine hydrochloride to complete the coupling process. […]
Endpoint Label: pKd
Kindly note that pKd refers to -log10 of the concentration in mol/L and answer with the value alone.

Give me measured pKd, please, for this binder: high affinity PDL-1 molecule L2A6 (ligand) FTVTVPKDLYVVEYGSNMTIECKFPVEKQLDLAALQVHWFMEDKNIASFVHGEEDLKVQHSSYRQRARLLKDQLSLGNAALQITDVKLQDAGVYRCMISYGGADYKRITVKVNAPYNKINQRIRVVDPVTSEHELTCQAEGYPKAEVIWTSSDHQVLSGKTTTTNSKREEKLFNVTSTLRINTTTNEIFYCTFRRLDPEENHTAELVIPEL
5.32
